The measurements presented in this section are drawn from the supplement of paper PMC10567573.

B1: WSB1 (parent)
chain: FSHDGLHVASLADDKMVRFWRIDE

Variants of: B1
procedure.summary: protein stability index of a GFP-peptide fusion (GPS, HEK-293T) (PSI 1-6); higher = more stable;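 further: lentivirally expressed fusions sorted by FACS into six bins by GFP to DsRed ratio, PSI derived from sequencing read proportions per bin multiplied by bin number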
experimental.context: c terminus: a fixed tail appended
Entries annotated with measured protein stability index
measured.quantity: protein stability index

>>> assay_value("FSHDGLHVASLADDKMVQFWRIDE [R18Q]")
2.01
>>> assay_value("FSHDGLHVASLADDKMVRTWRIDE [F19T]")
3.13
>>> assay_value("QSHDGLHVASLADDKMVRFWRIDE [F1Q]")
3.9
>>> assay_value("FSHDGLHVAPLADDKMVRFWRIDE [S10P]")
1.63
>>> assay_value("FSHDGLHVDSLADDKMVRFWRIDE [A9D]")
1.71
>>> assay_value("NSHDGLHVASLADDKMVRFWRIDE [F1N]")
3.25
>>> assay_value("FSHDGLHVAGLADDKMVRFWRIDE [S10G]")
1.65
>>> assay_value("FSHDGLHVASLADDKMVRWWRIDE [F19W]")
1.57
>>> assay_value("FSHDGLHVASLADDKMVTFWRIDE [R18T]")
1.08
>>> assay_value("FSHDLLHVASLADDKMVRFWRIDE [G5L]")
1.74
>>> assay_value("FSHDGLHVASLADDKPVRFWRIDE [M16P]")
2.05
>>> assay_value("FSHDGLHVKSLADDKMVRFWRIDE [A9K]")
1.67
>>> assay_value("FSHDGLHVASLADDRMVRFWRIDE [K15R]")
2.02
>>> assay_value("FSHDGMHVASLADDKMVRFWRIDE [L6M]")
2.41
>>> assay_value("FSHDGLIVASLADDKMVRFWRIDE [H7I]")
2.17
>>> assay_value("FSHLGLHVASLADDKMVRFWRIDE [D4L]")
1.53
>>> assay_value("FSHDGLHVCSLADDKMVRFWRIDE [A9C]")
2.51
>>> assay_value("FSHDGLHVASLADDKMVRFWRICE [D23C]")
1.21
>>> assay_value("FSHDGLHVAELADDKMVRFWRIDE [S10E]")
2.02
>>> assay_value("FSHDGLHVASLWDDKMVRFWRIDE [A12W]")
1.23
